- Test system: MDCKII cells
- measurementDescription: Apparent permeability in MDCKII cells
- Format: in vitro ADME
- runParameters: Papp, average of A to B and B to A, 1 μM test compound, t=3 hr
measuredProperty: MDCK Permeability (cm × 10-6/sec)

The following compounds have reported results that may help.
Q. Read the entry "C[C@@H]1C[C@H]2[C@@H]3C[C@H](F)C4=CC(=O)C=C[C@]4(C)[C@@]3(F)[C@@H](O)C[C@]2(C)[C@@]1(OC(=O)CCCCCCCCP(=O)(O)O)C(=O)SCF" and write its reported MDCK Permeability (cm × 10-6/sec).
A. <0.9 cm × 10-6/sec

Q. Read the entry "C[C@@H]1C[C@H]2[C@@H]3C[C@H](F)C4=CC(=O)C=C[C@]4(C)[C@@]3(F)[C@@H](O)C[C@]2(C)[C@@]1(O)C(=O)SCCCCCCP(=O)(O)O" and write its reported MDCK Permeability (cm × 10-6/sec).
A. 1.9 cm × 10-6/sec

--- query ---
Q. Read the entry "C[C@@H]1C[C@H]2[C@@H]3C[C@H](F)C4=CC(=O)C=C[C@]4(C)[C@@]3(F)[C@@H](O)C[C@]2(C)[C@@]1(O)C(=O)SCCCCP(=O)(O)O" and write its reported MDCK Permeability (cm × 10-6/sec).
A. 1.84 cm × 10-6/sec

----------
- measuredTarget: UniProtKB P04150
- Sequence (P04150 whole entry): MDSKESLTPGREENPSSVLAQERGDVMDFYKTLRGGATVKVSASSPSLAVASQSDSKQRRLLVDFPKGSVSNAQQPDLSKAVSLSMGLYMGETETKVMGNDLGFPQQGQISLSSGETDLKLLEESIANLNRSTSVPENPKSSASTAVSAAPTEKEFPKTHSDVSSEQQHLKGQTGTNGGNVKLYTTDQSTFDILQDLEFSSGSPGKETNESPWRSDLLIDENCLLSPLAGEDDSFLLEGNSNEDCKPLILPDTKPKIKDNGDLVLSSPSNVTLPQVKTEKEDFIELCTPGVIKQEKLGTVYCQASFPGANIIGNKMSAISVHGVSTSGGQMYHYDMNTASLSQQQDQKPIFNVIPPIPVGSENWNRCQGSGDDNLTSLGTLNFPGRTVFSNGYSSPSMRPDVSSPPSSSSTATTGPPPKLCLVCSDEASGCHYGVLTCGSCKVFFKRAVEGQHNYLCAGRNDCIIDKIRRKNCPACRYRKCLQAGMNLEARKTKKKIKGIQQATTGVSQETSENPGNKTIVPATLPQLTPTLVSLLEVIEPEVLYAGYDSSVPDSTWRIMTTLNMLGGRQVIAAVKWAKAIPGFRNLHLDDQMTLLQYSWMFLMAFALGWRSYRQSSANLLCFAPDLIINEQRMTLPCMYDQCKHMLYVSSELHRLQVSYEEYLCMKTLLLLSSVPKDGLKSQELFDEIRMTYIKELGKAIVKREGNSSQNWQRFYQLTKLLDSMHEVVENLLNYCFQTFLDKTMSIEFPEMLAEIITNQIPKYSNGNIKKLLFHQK
measuredProperty: pIC50
Give only the number. pIC50 is defined as minus log10 of concentration in molar units.

Q. Read the entry "C[C@@H]1C[C@H]2[C@@H]3C[C@H](F)C4=CC(=O)C=C[C@]4(C)[C@@]3(F)[C@@H](O)C[C@]2(C)[C@@]1(OC(=O)CCCCCP(=O)(O)O)C(=O)SCF" and write its reported pIC50.
A. 9.85

----------
- System: MDCKII cells
- measurementDescription: Apparent permeability in MDCKII cells
- Format: in vitro ADME
- runParameters: Papp, average of A to B and B to A, 1 μM test compound, t=3 hr
Recorded MDCK Permeability (cm × 10-6/sec) for the following compounds
Please give a number only; it is taken to be in cm × 10-6/sec.

The following compounds have reported results that may help.
Q. Read the entry "CCC(=O)O[C@]1(C(=O)SCCCCCCP(=O)(O)O)[C@H](C)C[C@H]2[C@@H]3C[C@H](F)C4=CC(=O)C=C[C@]4(C)[C@@]3(F)[C@@H](O)C[C@@]21C" and write its reported MDCK Permeability (cm × 10-6/sec).
A. 2

Q. Read the entry "CCC(=O)O[C@]1(C(=O)SCCCCCCCCCCP(=O)(O)O)[C@H](C)C[C@H]2[C@@H]3C[C@H](F)C4=CC(=O)C=C[C@]4(C)[C@@]3(F)[C@@H](O)C[C@@]21C" and write its reported MDCK Permeability (cm × 10-6/sec).
A. 1.04

Q. Read the entry CCCC1O[C@@H]2C[C@H]3[C@@H]4CCC5=Cc6c(cnn6-c6cccc(OCCCCP(=O)(O)O)c6)C[C@]5(C)[C@H]4[C@@H](O)C[C@]3(C)[C@]2(C(=O)CO)O1 (stereo partly shown) and write its reported MDCK Permeability (cm × 10-6/sec).
A. 1.6

--- query ---
Q. Read the entry CCCC1O[C@@H]2C[C@H]3[C@@H]4CCC5=CC(=O)C=C[C@]5(C)[C@H]4[C@@H](O)C[C@]3(C)[C@]2(C(=O)CO)O1 (stereo partly shown) [Budesonide, reference compound] and write its reported MDCK Permeability (cm × 10-6/sec).
A. 31.6
